Ref: patent US20170022171A1

Each entry below carries its reported log10 of IC50.
Sequence of the target: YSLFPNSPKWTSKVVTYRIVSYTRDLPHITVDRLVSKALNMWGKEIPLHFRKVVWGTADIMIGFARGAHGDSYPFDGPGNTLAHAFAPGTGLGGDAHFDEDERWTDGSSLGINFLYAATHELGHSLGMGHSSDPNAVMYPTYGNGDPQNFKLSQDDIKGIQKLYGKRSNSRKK
endpoint.label: log10 of IC50 (log10 of the value in nM)

| compound | log10 of IC50 |
| --- | --- |
| O=C(O)[C@H]1[C@H](Cn2nnc3ccc(C(F)(F)F)cc3c2=O)CC[C@@H]1C(=O)c1ccc(OCC2CCCCC2)cc1 (racemic) | 2.41 |
| O=C(O)[C@H]1[C@H](Cn2nnc3ccc(C(F)(F)F)cc3c2=O)CC[C@@H]1C(=O)c1ccc(OCCCC2CCCCC2)cc1 (racemic) | 3.15 |
| Cc1ccc2nnn(C[C@@H]3CC[C@H](C(=O)c4ccc(OCc5cccc(C(F)(F)F)c5)cc4)[C@H]3C(=O)O)c(=O)c2c1 (racemic) | 3.00 |
| O=C(O)[C@H]1[C@H](Cn2nnc3ccccc3c2=O)CC[C@@H]1C(=O)c1ccc(OCCC2CCCCC2)cc1 (racemic) | 3.38 |
| COC(=O)Nc1cccc(COc2ccc(C(=O)[C@@H]3CC[C@H](Cn4nnc5ccc(C(F)(F)F)cc5c4=O)[C@H]3C(=O)O)cc2)c1 (stereo in doubt) | 1.90 |
| CCCCCOc1ccc(C(=O)[C@H]2CC[C@@H](Cn3nnc4ccc(C)cc4c3=O)[C@@H]2C(=O)O)cc1 (racemic) | 2.59 |
